# System: C. albicans
# assayComment: In vitro combination effects, checkerboard method by micro dilution (FIC index)
# Type: cell-based, Candida albicans
# cond: C. albicans (20 strains); combination use with Test Compound 1
Listed here: items and their measured Ratio indicating Synergistic effect of combination use with Test Compound 1.
Please answer using a numeric value trailed by its unit.

{"recordSmiles": "OC(Cn1cncn1)(Cn1cncn1)c1ccc(F)cc1F", "reportedResult": "10%"}
{"recordSmiles": "CC[C@H](C)C[C@H](C)CCCCCCCCC(=O)N[C@H]1C[C@@H](O)[C@@H](NCCN)NC(=O)[C@@H]2[C@@H](O)CCN2C(=O)[C@H]([C@H](O)CCN)NC(=O)[C@H]([C@H](O)[C@@H](O)c2ccc(O)cc2)NC(=O)[C@@H]2C[C@@H](O)CN2C(=O)[C@H]([C@@H](C)O)NC1=O", "reportedResult": "0%"}

Consider the record given below.
Inquiry: Give recorded Ratio indicating Synergistic effect of combination use with Test Compound 1. `C[C@@H](c1ncncc1F)[C@](O)(Cn1cncn1)c1ccc(F)cc1F`
Reply text: 15%

---

Listed here: items and their measured Ratio indicating Synergistic effect of combination use with Test Compound 1.
# Tested on: C. albicans
# assayComment: In vitro combination effects, checkerboard method by micro dilution (FIC index)
# Format: cell-based, Candida albicans
# cond: C. albicans (20 strains); combination use with Test Compound 1
Numbered stars: 1 amine (or outer) side, 2 acyl side, 3 side chain; on linkers, the order of the positions; unused ones are H or OH. Bridge positions count the residues as written; N and C are the ends. Square brackets hold non-standard residues; d marks the D form. Peptide text beside a SMILES is read from it. * marks the point of attachment. hTyr(3S-OH,4S-OH,3'-OSO3H) = N[C@H](C(=O)O)[C@H](O)[C@@H](O)c1ccc(O)c(OS(=O)(=O)O)c1; Orn(4R-OH,5R-OH) = O=C([C@H](C[C@@H](O)[C@@H](O)N[*:3])N[*:1])[*:2]; Pro(3S-OH,4S-Me) = C[C@H]1CN[C@H](C(=O)O)[C@H]1O; X1 = CCCCCOc1ccc(-c2cc(-c3ccc(C(=O)*)cc3)no2)cc1; Gln(3R-OH) = NC(=O)C[C@@H](O)[C@H](N)C(=O)O; Hyp = O=C(O)[C@@H]1C[C@@H](O)CN1
Kindly answer with a numeric value in %, unit omitted.

{"compound": "C[C@@H]1[C@H](O)[C@@H](C)/C=C/C=C/C=C/C=C/C=C/C=C/C=C/[C@H](O[C@@H]2O[C@H](C)[C@@H](O)[C@H](N)[C@@H]2O)C[C@@H]2O[C@](O)(C[C@@H](O)C[C@@H](O)[C@H](O)CC[C@@H](O)C[C@@H](O)CC(=O)O[C@H]1C)C[C@H](O)[C@H]2C(=O)O", "reportedResult": 5}

Consider the record given below.
Inquiry: State the measured Ratio indicating Synergistic effect of combination use with Test Compound 1 (C. albicans) of CCCCCOc1ccc(-c2cc(-c3ccc(C(=O)N[C@H]4C[C@@H](O)[C@@H](O)NC(=O)[C@@H]5[C@@H](O)[C@@H](C)CN5C(=O)[C@H]([C@H](O)CC(N)=O)NC(=O)[C@H]([C@H](O)[C@@H](O)c5ccc(O)c(OS(=O)(=O)O)c5)NC(=O)[C@@H]5C[C@@H](O)CN5C(=O)[C@H]([C@@H](C)O)NC4=O)cc3)no2)cc1 [Micafungin, micafungin] (X1-[Orn(4R-OH,5R-OH)]T[Hyp][hTyr(3S-OH,4S-OH,3'-OSO3H)][Gln(3R-OH)][Pro(3S-OH,4S-Me)]; lactam 1-C)
Reply text: 0
